Each entry below carries its reported Bliss excess.
- Tested on: UMC-11 (Other Solid Carcinomas);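 further: after 72 h of two-drug dosing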
- test_method_notes: Bliss excess, mean over the matrix (fraction); higher = more synergy
quantity: Bliss excess

>  <molecule>
CC1(C)CCC(CN2CCN(c3ccc(C(=O)NS(=O)(=O)c4ccc(NCC5CCOCC5)c([N+](=O)[O-])c4)c(Oc4cnc5[nH]ccc5c4)c3)CC2)=C(c2ccc(Cl)cc2)C1 [Venetoclax] + Cc1cc2ncnn2cc1Nc1ncc2c(n1)n(C1CCOCC1)c(=O)n2C [AZD7648] (first compound max 1 µM, 7x7, partner max 10 µM)

>  <endpoint_value>
-0.0465

$$$$
>  <molecule>
C[C@@H](c1ccc2nccn2c1)n1nnc2ncc(-c3cnn(C)c3)nc21 [Savolitinib] + Cc1c2c(nn1C)CSCc1cc(n(C)n1)CSc1cc(c3ccccc3c1)OCCCc1c(C(=O)O)n(C)c3c-2c(Cl)ccc13 [AZD5991] (first compound max 1 µM, 7x7, partner max 1 µM)

>  <endpoint_value>
-0.0026

$$$$
>  <molecule>
NC1(C(=O)N[C@@H](CCO)c2ccc(Cl)cc2)CCN(c2ncnc3[nH]ccc23)CC1 [Capivasertib] + CCN(CCO)CCCOc1ccc2c(Nc3cc(CC(=O)Nc4cccc(F)c4)[nH]n3)ncnc2c1 [AZD2811] (first compound max 10 µM, 7x7, partner max 1 µM)

>  <endpoint_value>
-0.0195

$$$$

====

- Test system: RKO (Colorectal Carcinoma)
- test_method_notes: combination Emax (second highest fraction inhibited in the dose matrix, 72 h); higher = more inhibition; extreme values may be limits of the assay
Each item that follows carries a reported combination Emax.
quantity: combination Emax

>  <compound>
CC(=O)Nc1cccc(-n2c(=O)n(C3CC3)c(=O)c3c(Nc4ccc(I)cc4F)n(C)c(=O)c(C)c32)c1 [Trametinib] + Cc1nc(-c2cn3c(n2)-c2ccc(-c4cnn(C(C)(C)C(N)=O)c4)cc2OCC3)n(C(C)C)n1 [Taselisib] (first compound max 1 µM, 7x7, partner max 10 µM)

>  <endpoint_value>
0.956

$$$$
>  <compound>
NC1(C(=O)N[C@@H](CCO)c2ccc(Cl)cc2)CCN(c2ncnc3[nH]ccc23)CC1 [Capivasertib] + CC(=O)c1c(C)c2cnc(Nc3ccc(N4CCNCC4)cn3)nc2n(C2CCCC2)c1=O [Palbociclib] (first compound max 10 µM, 7x7, partner max 10 µM)

>  <endpoint_value>
0.601

$$$$
>  <compound>
CC1(C)CCC(CN2CCN(c3ccc(C(=O)NS(=O)(=O)c4ccc(NCC5CCOCC5)c([N+](=O)[O-])c4)c(Oc4cnc5[nH]ccc5c4)c3)CC2)=C(c2ccc(Cl)cc2)C1 [Venetoclax] + C1CN(CCC1(C(=O)N[C@@H](CCO)C2=CC=C(C=C2)Cl)N)C3=NC=NC4=C3C=CN4 [Capivasertib] (first compound max 1 µM, 7x7, partner max 3 µM)

>  <endpoint_value>
0.36

$$$$
>  <compound>
Cc1c2c(nn1C)CSCc1cc(n(C)n1)CSc1cc(c3ccccc3c1)OCCCc1c(C(=O)O)n(C)c3c-2c(Cl)ccc13 [AZD5991] + C=CCn1c(=O)c2cnc(Nc3ccc(N4CCN(C)CC4)cc3)nc2n1-c1cccc(C(C)(C)O)n1 [AZD1775] (first compound max 1 µM, partner max 1 µM)

>  <endpoint_value>
0.69

$$$$
>  <compound>
NC1(C(=O)N[C@@H](CCO)c2ccc(Cl)cc2)CCN(c2ncnc3[nH]ccc23)CC1 [Capivasertib] + CCN(CCO)CCCOc1ccc2c(Nc3cc(CC(=O)Nc4cccc(F)c4)[nH]n3)ncnc2c1 [AZD2811] (first compound max 10 µM, 7x7, partner max 1 µM)

>  <endpoint_value>
0.615

$$$$
>  <compound>
C[C@@H]1COCCN1c1cc(C2([S@](C)(=N)=O)CC2)nc(-c2ccnc3[nH]ccc23)n1 [AZD6738] + O=C(c1cc(Cc2n[nH]c(=O)c3ccccc23)ccc1F)N1CCN(C(=O)C2CC2)CC1 [Olaparib] (first compound max 10 µM, 7x7, partner max 10 µM)

>  <endpoint_value>
0.845

$$$$
>  <compound>
COc1nnc2ccc(N3CCC(c4ccc(OCCN5CCN(C)C(=O)[C@H]5C)cc4)CC3)nn12 [AZD5153] + C=CCn1c(=O)c2cnc(Nc3ccc(N4CCN(C)CC4)cc3)nc2n1-c1cccc(C(C)(C)O)n1 [AZD1775] (first compound max 1 µM, partner max 1 µM)

>  <endpoint_value>
0.841

$$$$

Origin of measurements: the supplement of paper PMC11061612
